Target: T1, human IL-13 R130Q variant (R110Q of the mature chain) (human, UniProt P35225 35-146, Biotinylated on amines (NHS-LC-biotin, 4:1) in ELISA, panning and competition assays. The letters are unchanged.)
T1 construct: R130Q counts from Met 1 of the signal peptide, R110Q on the mature chain; Bought from Peprotech; also called IL-13 R110Q; b-R130Q
T1 sequence (P35225 35-146 limits assumed, stated change not applied): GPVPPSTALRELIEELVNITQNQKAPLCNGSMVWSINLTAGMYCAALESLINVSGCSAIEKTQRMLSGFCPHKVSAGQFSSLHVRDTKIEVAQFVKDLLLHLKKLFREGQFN
Test: single-point (10 nM) phage Fab ELISA on biotinylated IL-13 R130Q
Metric Name: Signal (% of Lc16Hc7) (%)
Answers are plain numbers, in %.

Solved cases below.
Binder	Val
Fab clone 1H06 (IL-13-62 library) (Fab, V domains shown, Fab on phage pIX) VH: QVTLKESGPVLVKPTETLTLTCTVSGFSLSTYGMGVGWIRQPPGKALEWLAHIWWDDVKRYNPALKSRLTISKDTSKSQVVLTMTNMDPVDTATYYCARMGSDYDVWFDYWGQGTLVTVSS VL: EIVLTQSPATLSLSPGERATLSCRASKSISKYLAWYQQKPGQAPRLLIYSGSTLQSGIPARFSGSGSGTDFTLTISSLEPEDFAVYYCQQHDWAPYTFGQGTKLEIK	139
Fab clone 1D08 (IL-13-62 library) (Fab, V domains shown, Fab on phage pIX) VH: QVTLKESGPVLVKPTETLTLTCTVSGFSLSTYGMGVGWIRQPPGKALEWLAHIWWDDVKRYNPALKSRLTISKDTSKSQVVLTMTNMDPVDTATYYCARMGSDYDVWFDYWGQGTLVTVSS VL: EIVLTQSPATLSLSPGERATLSCRASKSISKYLAWYQQKPGQAPRLLIYSGSTLQSGIPARFSGSGSGTDFTLTISSLEPEDFAVYYCQQHDWEPYTFGQGTKLEIK	116

Query string: Item Fab clone 2D04 (IL-13-62 library) (Fab, V domains shown, Fab on phage pIX; del = residue deleted) VH: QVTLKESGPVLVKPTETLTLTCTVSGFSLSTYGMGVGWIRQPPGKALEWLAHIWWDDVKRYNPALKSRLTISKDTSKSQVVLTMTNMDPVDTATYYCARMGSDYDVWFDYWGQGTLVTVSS VL: EIVLTQSPATLSLSPGERATLSCRASKSISKYLAWYQQKPGQAPRLLIYSGSTLQSGIPARFSGSGSGTDFTLTISSLEPEDFAVYYCQQQDSPYTFGQGTKLEIK has what recorded Signal (% of Lc16Hc7)?
Result string: 100

Entry source: patent US20120045438A1
